# melting point annotations

Before answering, review these 10 worked examples.
molecule	melting point
COc1ccnc(-n2c(-c3ccc(S(=O)(=O)N[C@@H](C)C(F)(F)F)cn3)c(C(N)=O)c3cc(F)c(C)cc32)n1 [compound 906]	167 to 174 °C
CCc1cc2c(cc1F)c(C#N)c(-c1ccc(S(=O)(=O)N[C@@H](C)C(F)(F)F)cn1)n2-c1ncc(C)cn1 [compound 976]	201 to 206 °C
Cc1cc2c(cc1F)c(C#N)c(-c1ccc(S(=O)(=O)N[C@@H](C)C(F)(F)F)cn1)n2-c1ncc(Cl)cn1 [compound 914]	213 to 218 °C
N#Cc1ccc2c(C#N)c(-c3ccc(S(=O)(=O)NC(CF)CF)cn3)n(C3CCC3)c2c1 [compound 465]	203 to 204 °C
CC(C)(C)S(=O)(=O)Nc1ccc(-c2c(C#N)c3ccc(OC(F)F)cc3n2CC2CC2)cn1 [compound 269]	214 to 215 °C
Cc1cc(F)c2c(C#N)c(-c3ccc(S(=O)(=O)NC4(C(F)(F)F)CC4)cn3)n(C3CCCC3)c2c1 [compound 628]	242 to 246 °C
CSc1ccc2c(C#N)c(-c3ncc(S(=O)(=O)NC(CF)CF)cn3)n(C3CCC3)c2c1 [compound 162]	199 to 201 °C
Cc1cc2c(cc1F)c(C#N)c(-c1ncc(S(=O)(=O)N[C@@H](C)C(F)(F)F)cc1C)n2C1CCCC1 [compound 837]	237 to 242 °C
CCc1cc2c(C#N)c(-c3ccc(S(=O)(=O)N[C@@H](C)C(F)(F)F)cn3)n(C3CCC3)c2cc1OC(F)F [compound 647]	160 to 162 °C
N#Cc1ccc2c(C#N)c(-c3ncc(S(=O)(=O)NC(CF)CF)cn3)n(C3CCCC3)c2c1 [compound 469]	246 to 247 °C

Lookup: Requested read-out: melting point. Entry: N#Cc1c(-c2ccc(S(=O)(=O)NC(CF)CF)cn2)n(-c2ccccc2)c2ccc(F)cc12 [compound 113]
Found: 165 to 168 °C

Lookup: Field entry: Cc1cc2c(cc1F)c(C(N)=O)c(-c1ccc(S(=O)(=O)N[C@H](C)C(F)(F)F)cn1)n2C1CCCC1 [compound 699]
Found: 243 to 245 °C
